# targetEntity: Xanthine dehydrogenase/oxidase (Homo sapiens)
# Sequence (P47989 whole entry): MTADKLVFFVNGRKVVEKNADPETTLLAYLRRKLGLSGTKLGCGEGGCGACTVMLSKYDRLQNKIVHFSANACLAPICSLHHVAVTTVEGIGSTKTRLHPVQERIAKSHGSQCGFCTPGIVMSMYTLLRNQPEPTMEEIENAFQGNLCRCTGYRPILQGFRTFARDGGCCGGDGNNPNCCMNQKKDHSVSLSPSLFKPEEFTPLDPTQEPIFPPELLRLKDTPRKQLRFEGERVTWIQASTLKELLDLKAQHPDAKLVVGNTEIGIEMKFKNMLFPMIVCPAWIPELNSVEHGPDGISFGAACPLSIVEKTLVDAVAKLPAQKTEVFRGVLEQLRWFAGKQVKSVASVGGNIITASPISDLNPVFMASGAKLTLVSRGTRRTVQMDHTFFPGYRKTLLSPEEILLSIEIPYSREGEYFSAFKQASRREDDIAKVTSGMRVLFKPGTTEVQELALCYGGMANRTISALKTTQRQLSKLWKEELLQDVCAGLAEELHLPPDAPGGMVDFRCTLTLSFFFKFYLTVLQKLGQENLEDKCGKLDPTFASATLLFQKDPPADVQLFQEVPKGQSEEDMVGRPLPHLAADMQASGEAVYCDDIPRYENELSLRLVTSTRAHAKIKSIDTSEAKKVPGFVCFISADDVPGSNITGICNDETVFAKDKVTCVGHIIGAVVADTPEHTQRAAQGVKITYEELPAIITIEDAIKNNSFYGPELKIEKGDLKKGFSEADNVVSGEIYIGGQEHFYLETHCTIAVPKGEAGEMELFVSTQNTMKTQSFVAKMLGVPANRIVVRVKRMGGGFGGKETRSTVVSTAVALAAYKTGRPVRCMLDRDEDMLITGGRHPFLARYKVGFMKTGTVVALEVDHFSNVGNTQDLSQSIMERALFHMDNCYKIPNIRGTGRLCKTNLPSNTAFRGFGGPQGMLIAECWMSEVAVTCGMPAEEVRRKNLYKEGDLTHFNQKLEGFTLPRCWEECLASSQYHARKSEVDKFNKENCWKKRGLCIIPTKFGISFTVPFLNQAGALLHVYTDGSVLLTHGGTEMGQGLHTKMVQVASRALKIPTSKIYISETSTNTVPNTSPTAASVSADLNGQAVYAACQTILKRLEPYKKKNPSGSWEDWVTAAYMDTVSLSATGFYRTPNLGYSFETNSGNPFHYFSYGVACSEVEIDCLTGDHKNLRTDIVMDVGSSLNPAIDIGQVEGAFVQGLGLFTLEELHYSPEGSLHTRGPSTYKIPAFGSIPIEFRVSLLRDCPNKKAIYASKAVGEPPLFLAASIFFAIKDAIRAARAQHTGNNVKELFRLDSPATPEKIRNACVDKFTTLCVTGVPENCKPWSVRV
# assaySummary: Compound was evaluated for inhibition of xanthine oxidase
# Design: concentration or dose not given beside the values
readoutLabel: Inhibition (%)

# compound, readoutLabel, observedMeasurement
data = [
    ("O=C(O)/C=C/c1cc(O)c(O)cc1[N+](=O)[O-]", "Inhibition", 36),
]

[a] O=[N+]([O-])c1cc(O)ccc1O
[b] O=[N+]([O-])c1cccc(O)c1O
[c] O=C(O)/C=C/c1ccc(O)c(O)c1 [CAFFEIC ACID]
[d] O=C(O)/C=C/c1ccc(O)c(O)c1[N+](=O)[O-]
Ask | Rank the items in ascending order with respect to Inhibition. Use the labels to give the ranking in the order requested.
Reply | b, a, c, d

[P] O=[N+]([O-])c1ccc(O)c(O)c1 [4-Nitrocatechol]
[Q] O=C(O)/C=C/c1cc(O)c(O)c([N+](=O)[O-])c1
Ask | Please choose the item with the lower Inhibition value from this pair: P and Q Your answer should be the label attached to the chosen record.
Reply | P
